# Test system: BDF1 mice, B16 melanoma ip, median survival T/C
# test_protocol: NCI In Vivo Anticancer Drug Screen. Data for tumor model B16 Melanoma (intraperitoneal) in B6D2F1 (BDF1) mice
# cond: endpoint: median survival time; dose: 12.5 mg/kg/injection; schedule: Q01DX009 (ip); vehicle: Klucel (hydroxypropylcellulose) (HPC); higher = longer survival
Inconclusive results and toxic doses are left out.
attribute_measured: T/C

Solved entries (count: 5):
[[record]]
compound = "CCCC(=O)OCc1cc(=O)n(C)c2c3c4c(cc12)c(C)cc(=O)n4CO3"
attribute_measured = "T/C"
data_value = "120 % of control"

[[record]]
compound = "COc1ccc(OCC(O)CN2CCN(c3ccc(Cl)cc3)CC2)cc1 (stereo not given)"
attribute_measured = "T/C"
data_value = "105 % of control"

[[record]]
compound = "Cc1cc(=O)n(C)c2ccccc12"
attribute_measured = "T/C"
data_value = "90 % of control"

[[record]]
compound = "Cc1ccc(NC(=O)Nc2cccc3ccccc23)cc1Cl"
attribute_measured = "T/C"
data_value = "94 % of control"

[[record]]
compound = "O=C1C(Cl)=C(c2ccccc2)C(=O)C(Cl)=C1c1ccccc1"
attribute_measured = "T/C"
data_value = "106 % of control"


compound Cc1cccc(C)c1N.[C-]#[O+].[C-]#[O+].[C-]#[O+].[Cr] , T/C observed: 100 % of control

Reported T/C for CCCc1c2cc(OC)c(OC)cc2cc2c3cc(OC)c(OC)cc3cc[n+]12 (tested in a mixture with another compound) was 96 % of control

get_value(item= CCN(CC)CCCC(C)Nc1c2ccc(Cl)cc2nc2cc(Cl)ccc12 (stereo not given) , readout=T/C) returns 106 % of control

The recorded T/C for Cc1nc2ccccc2nc1CBr is 96 % of control

// T/C value for C[n+]1ccc(Nc2ccc(NC(=O)c3ccc(Nc4cc[n+](C)c5ccc(N)cc45)cc3N)cc2)cc1 : 105 % of control

====

# System: BDF1 mice, B16 melanoma ip, median survival T/C
# test_protocol: NCI In Vivo Anticancer Drug Screen. Data for tumor model B16 Melanoma (intraperitoneal) in B6D2F1 (BDF1) mice
# cond: endpoint: median survival time; dose: 10.0 mg/kg/injection; schedule: Q01DX009 (ip); vehicle: saline with Tween-80; higher = longer survival
Inconclusive results and toxic doses are left out.
Entries and their T/C values follow.

Worked examples follow.
[[record]]
molecule = "O=C1C=C[C@H](O)[C@@]2(CO)O[C@@H]12"
data_value = "104 % of control"

[[record]]
molecule = "CC1=CC(O)C(O)C2(C)C1CC(=O)C13COC4OC(CC1C4=O)C(O)C32 (centres undefined)"
data_value = "91 % of control"

[[record]]
molecule = "COc1cc2ccc3c(c2cc1OC)N(C)C(OC)c1cc2c(cc1-3)OCO2 (centres undefined)"
data_value = "119 % of control"


# input for lookup
Form: item COC(=O)C(C#N)=C(C)C ; test system BDF1 mice, B16 melanoma ip, median survival T/C; T/C: 100 % of control

====

Form field: T/C (one value per entry).
# System: BDF1 mice, B16 melanoma ip, median survival T/C
# test_protocol: NCI In Vivo Anticancer Drug Screen. Data for tumor model B16 Melanoma (intraperitoneal) in B6D2F1 (BDF1) mice
# cond: endpoint: median survival time; dose: 12.5 mg/kg/injection; schedule: Q01DX009 (ip); vehicle: saline with Tween-80; higher = longer survival
Inconclusive results and toxic doses are left out.

[[record]]
compound = "OCN(CO)c1nc(N(CO)CO)nc(N(CO)CO)n1"
data_value = "100 % of control"

[[record]]
compound = "NC(=S)N/N=C\\c1nccc2c(N)cccc12"
data_value = "119 % of control"

[[record]]
compound = "CC(C)(C)CC(C)(C)CC(C)(C)NCCCN"
data_value = "91 % of control"

[[record]]
compound = "CCCCCCCCCCCC1=C(O)C(=O)C=C(O)C1=O"
data_value = "96 % of control"

[[record]]
compound = "C(COCCOCC1CO1)OCCOCC1CO1 (configuration not stated)"
data_value = "101 % of control"


The recorded T/C for entry CCCCCCCCSCCO equals 102 % of control

Measured T/C, Nc1ccc(Cl)cc1N : 104 % of control

====

This listing pairs compounds with measured T/C.
# Test system: BDF1 mice, B16 melanoma ip, median survival T/C
# test_protocol: NCI In Vivo Anticancer Drug Screen. Data for tumor model B16 Melanoma (intraperitoneal) in B6D2F1 (BDF1) mice
# cond: endpoint: median survival time; dose: 25.0 mg/kg/injection; schedule: Q01DX009 (ip); vehicle: water; higher = longer survival
Toxic doses and inconclusive results are not listed.

These solved cases illustrate the format of a correct answer.
[[record]]
compound = "CC(C(=O)O)C(=O)O.[NH-]CC[NH-].[Pt+2]"
data_value = "211 % of control"

[[record]]
compound = "O=C(O)C(=O)O.O=C(O)C(=O)O.OO.OO.[Nb]"
data_value = "112 % of control"

[[record]]
compound = "COc1ccc(S(=O)(=O)NC(=S)S)cc1"
data_value = "102 % of control"


Shifting focus to the compound that follows.
The compound identified as NC(CNC(=O)C(Cl)Cl)C(=O)O (stereo not drawn) registered its T/C at 100 % of control

====

# Test system: BDF1 mice, B16 melanoma ip, median survival T/C
# test_protocol: NCI In Vivo Anticancer Drug Screen. Data for tumor model B16 Melanoma (intraperitoneal) in B6D2F1 (BDF1) mice
# cond: endpoint: median survival time; dose: 200.0 mg/kg/injection; schedule: Q01DX009 (ip); vehicle: Klucel (hydroxypropylcellulose) (HPC); higher = longer survival
Inconclusive results and toxic doses are left out.
Catalogue of compounds with associated T/C

Field: example entries. Status: answers known.
[[record]]
compound = "CCOC(=O)/C=C(\\C)Nc1ccc(F)cc1"
target_or_system = "BDF1 mice, B16 melanoma ip, median survival T/C"
attribute_measured = "T/C"
data_value = "97 % of control"

[[record]]
compound = "NC(=O)c1ccccc1NC(=O)c1ccccc1Cl"
target_or_system = "BDF1 mice, B16 melanoma ip, median survival T/C"
attribute_measured = "T/C"
data_value = "97 % of control"

[[record]]
compound = "COc1ccc(CCN2CSC(=S)N(CCc3ccc(OC)c(OC)c3)C2)cc1OC"
target_or_system = "BDF1 mice, B16 melanoma ip, median survival T/C"
attribute_measured = "T/C"
data_value = "95 % of control"


get_value(item= CCOc1ccc(NC(=O)c2ccccc2Cl)cc1 , readout=T/C) returns 112 % of control

T/C recorded for this compound, COc1ccc2c(oc(=O)c3c(Cl)nc(C)c(C)c32)c1OC , is 94 % of control

// C/C(=N\O)C(=O)c1ccccc1 : T/C value = 100 % of control

The recorded T/C for entry Brc1nnnn1-c1ccccc1 equals 93 % of control

Entry under test: CC(C)(COC(=O)c1ccccc1)COC(=O)c1ccccc1 . Its T/C was 105 % of control

Kindly note the recorded T/C for Cc1ccc(NC(=O)C(Cl)(Cl)Cl)cc1C , which is 96 % of control

The reported value for Cc1cccc(C)c1NC(=O)Nc1cccc(Cl)c1 in terms of T/C is 100 % of control

====

# Test system: BDF1 mice, B16 melanoma ip, median survival T/C
# test_protocol: NCI In Vivo Anticancer Drug Screen. Data for tumor model B16 Melanoma (intraperitoneal) in B6D2F1 (BDF1) mice
# cond: endpoint: median survival time; dose: 200.0 mg/kg/injection; schedule: Q01DX009 (ip); vehicle: saline; higher = longer survival
Inconclusive results and toxic doses are left out.
Each record here notes measured T/C.

[[record]]
compound = "Cn1ccccc1=O"
data_value = "117 % of control"

[[record]]
compound = "OCCCN1CCCCC1CO (configuration not stated)"
data_value = "116 % of control"

[[record]]
compound = "CC(O)C(NC(=O)OC(C)(C)C)C(=O)O (configuration not stated)"
data_value = "105 % of control"

[[record]]
compound = "NCC(=O)NC(CCCN=C(N)N)C(=O)O (configuration not stated)"
data_value = "92 % of control"


Consider CCOC(=O)N(C)C . Its measured T/C is 98 % of control

Measured T/C, O=C(Nc1nccs1)C(F)(F)F : 103 % of control

The value of T/C measured for the compound O=C(O)CCC1CCC(=O)OC1=O (configuration not stated) turned out to be 113 % of control

====

# Tested on: BDF1 mice, B16 melanoma ip, median survival T/C
# test_protocol: NCI In Vivo Anticancer Drug Screen. Data for tumor model B16 Melanoma (intraperitoneal) in B6D2F1 (BDF1) mice
# cond: endpoint: median survival time; dose: 0.5 mg/kg/injection; schedule: Q01DX009 (ip); vehicle: saline; higher = longer survival
Toxic doses and inconclusive results are not listed.
attribute_measured: T/C

Memo: CCOC(=N)c1cn(C2OC(CO)C(O)C2O)c2ncnc(N)c12 (stereo not given) , reported T/C: 105 % of control

Short answer for CC[n+]1ccc(Nc2ccc(NC(=O)c3ccc(Nc4cc[n+](CC)c5ccc(N)cc45)cc3)cc2)cc1 : T/C was 95 % of control

Form: compound = COC12C(COC(N)=O)C3=C(C(=O)C(C)=C(N)C3=O)N1CC1C2N1C (stereo not given) ; T/C = 123 % of control

Documented T/C of COc1cccc2c1C(=O)c1c(O)c3c(c(O)c1C2=O)CC(O)(C(C)=O)CC3O (stereo not given) : 86 % of control

Field T/C (entry O=C1C(N2CCCC2)=C(N2CC2)C(=O)C(N2CCCC2)=C1N1CC1 ) reads 114 % of control
